conditions: 288.15 K; 101.33 kPa; Liquid; Sing-around technique in a fixed-path interferometer
Observation type: speed of sound (m/s)
Give the value in m/s but do not write m/s after it.

input: Param item = OCCO [1,2-ethanediol] ; retrieve measured speed of sound.
output: 1678.3

input: Param item = CCOCCOCCOCC [diethylene glycol diethyl ether] ; retrieve measured speed of sound.
output: 1283.2

input: Param item = CCOCCOCCO [3,6-dioxa-1-octanol] ; retrieve measured speed of sound.
output: 1410.5

input: Param item = OCCOCCO [diethylene glycol] ; retrieve measured speed of sound.
output: 1603.6

###

details: 283.15 K; 101.33 kPa; Liquid; Vibrating tube method
Observation type: mass density (kg/m3)
Give the value in kg/m3 but do not write kg/m3 after it.

input: Param item = OCCOCCO [diethylene glycol] ; retrieve measured mass density.
output: 1123.3

input: Param item = COCCOCCO [2-(2-methoxyethoxy)ethanol] ; retrieve measured mass density.
output: 1028.6

input: Param item = COCCOCCOC [2,5,8-trioxanonane] ; retrieve measured mass density.
output: 953.7

input: Param item = CCOCCOCCO [3,6-dioxa-1-octanol] ; retrieve measured mass density.
output: 997.1
